These data points were gathered from PubChem BioAssay AID1063.

experiment: Leishmania major promastigote growth inhibition, primary screen (AID 1063); settings: Leishmania major promastigotes, resazurin fluorescence viability; at 10 µM;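 further: promastigotes grown with compound for 44 hours at 28 °C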
Among all 200,000 compounds or so, about 18,000 (9%) were called active. No stated cut-off is given here; in the data, active means inhibition above about 50%; inactive means the rest. Shown is part of a subset that was picked to be rich in actives.
Pick from active, inactive when you respond.

Take a look at these entries with their results.
{"columns": ["COMPOUND", "ASSIGNED CATEGORY"],
 "data": [
  ["CC1CCN(c2ccc([N+](=O)[O-])cc2C(N)=O)CC1", "inactive"],
  ["OC(COc1ccc2ccccc2c1)CN1CCOCC1 (stereo unspecified)", "active"],
  ["COc1ccc(S(=O)(=O)N(C)C)cc1NC(=O)CSc1ncccn1", "inactive"],
  ["CCOC(=O)c1[nH]ncc1CN1CCCC(C(=O)c2ccc(OC)cc2C)C1 (stereo unspecified)", "inactive"],
  ["O=C(Nc1cccc(NC(=O)c2ccco2)c1)c1cnccn1", "inactive"],
  ["Cc1ccc2nc(C)cc(N/N=C/c3ccc(F)cc3)c2c1", "inactive"],
  ["Cc1ccc(NC(=S)N(CCCN2CCC(C)CC2)Cc2ccco2)cc1", "inactive"],
  ["CCCCC(=O)NNC(=S)NC(=O)C(c1ccccc1)c1ccccc1", "inactive"],
  ["CC1CCN(C(=S)c2cccc(O)c2)CC1", "inactive"],
  ["OC(COc1cccc(OCC(O)CN2CCCC2)c1)CN1CCCC1 (stereo unspecified)", "inactive"]
]}

[in] For CCc1ccc(NC(=O)c2ccc(Cn3cc([N+](=O)[O-])cn3)cc2)cc1 , what call appears in the results of this test?
[out] inactive

[in] Here is the next compound: COc1ccc(C(=O)NC(=S)NNC(=O)CCc2ccccc2)cc1
[out] active

[in] Field entry: CC(=O)Nc1ccc(OCC(O)CN2CCN(c3ccccc3Cl)CC2)cc1 (stereo unspecified)
[out] inactive

[in] Param item: COc1cc(NS(=O)(=O)c2ccccc2)ccc1-n1nc(C)cc1C
[out] inactive

[in] Please give the result for CC(=O)NC(Cc1ccc(F)cc1)C(=O)O (stereo unspecified) too.
[out] active

[in] Record: Cc1csc(OCC(=O)Nc2ccc(C)c(C)c2)n1
[out] inactive

[in] Now consider CCN(CC)S(=O)(=O)c1ccc(Cl)c(C(=O)NC(C)C(c2cccs2)N2CCCC2)c1 (stereo unspecified) and answer again.
[out] inactive

----------
assay: Leishmania major promastigote growth inhibition, primary screen (AID 1063); conditions: Leishmania major promastigotes, resazurin fluorescence viability; at 10 µM; hits give high values;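 further: promastigotes grown with compound for 44 hours at 28 °C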
Out of some 200,000 compounds screened, about 18,000 (9%) were called active. The list comes from a sample in which actives are over-represented; it also holds close analogues and randomly drawn compounds.
MEASURED METRIC: inhibition (%)
I only need the number, in %, no unit after it.

{"columns": ["COMPOUND", "MEASUREMENT UNIT", "inhibition"],
 "data": [
  ["O=C(CNC(=O)c1cc(=O)[nH]c2ccccc12)Nc1ccc(F)c(F)c1", "%", 2],
  ["O=c1[nH]c(CN2CCOCC2)nc2scc(-c3ccccc3)c12", "%", -8.93],
  ["CCCNS(=O)(=O)c1ccc2c(c1)CCCN2C(C)=O", "%", -1.63],
  ["CCn1cc(C(=O)NCC2CCCO2)c(=O)c2cc(S(=O)(=O)N3CCCCC3)ccc21 (stereo unspecified)", "%", 10.9],
  ["COc1ccccc1NC(=O)c1cc(Cl)nnc1Cl", "%", 15.6],
  ["CC(=O)Nc1ccc(/C(C)=N/NC(=O)CN(c2ccccc2Br)S(C)(=O)=O)cc1", "%", 50.5]
]}

[in] Form field: reported inhibition of C/C(=N/NC(=O)c1ccc(NC(=O)c2ccc(F)cc2)cc1)c1ccccc1
[out] -6.46

[in] Then CC(C)Oc1ccccc1C(=O)NC(CO)C(=O)O (stereo unspecified) ?
[out] -2.66

[in] Now consider COc1cccc(OC)c1C(=O)NC(=S)Nc1ccc(N2CCOCC2)c(Cl)c1 .
[out] 21.4

[in] // next record COc1ccc(OCCCn2cccc2/C=C2/C(=N)N3OC(C)=CC3=NC2=O)cc1
[out] 21.9

[in] Now this one: Cc1cc(NC(=O)CN2C(=O)NC(CCc3ccccc3)C2=O)no1 (stereo unspecified)
[out] 4.06
